Exercise: state measured pIC50 for each of the binders provided.
target: T1, human GLP-1 receptor (human, UniProt P43220 24-463); experiment: displacement of 125I-GLP-1(7-36)NH2, membranes with human GLP-1R, SPA
T1 construct: whole, on cells; the potency assay used whole cells (clone FCW467-12A/KZ10-1)
Numbered stars: 1 amine (or outer) side, 2 acyl side, 3 side chain; on linkers, the order of the positions; unused ones are H or OH. Square brackets hold non-standard residues; d marks the D form. Side chains are listed from the residue outwards. Ends that are not written are not given here. * marks the point of attachment. C18 diacid = O=C(O)CCCCCCCCCCCCCCCCC(=O)*; γGlu = O=C(O)[C@H](CCC(=O)[*:2])N[*:1]; Ac4c = NC1(C(=O)O)CCC1; Aib = CC(C)(N)C(=O)O
The meaning of pIC50 here: minus log10 of the concentration in molar units.

QUERY: Recorded pIC50 for H[Ac4c]QGTFTSDLSKYLESKRAREFVQWLLK([γGlu-γGlu-Ser-Glu-Ser-γGlu-γGlu-C18 diacid])T-NH2 , please?
RESULT: 9.52

QUERY: Next binder: H[Aib]QGTFTSDLSKYLESKRAREFVQWLLK([γGlu-γGlu-Ser-Glu-Ser-γGlu-γGlu-C18 diacid])T-NH2
RESULT: 9.70

QUERY: // repeat for H[Aib]QGTFTSDLSKYLDLRRARDFVQWLLK([Gly-Ser-Glu-Ser-γGlu-γGlu-C18 diacid])T-NH2 and report
RESULT: 8.96

QUERY: Same question for H[Aib]QGTFTSDLSKYLDKKAAREFVAWLLNT-NH2 (not fully specified) please.
RESULT: 9.70

QUERY: Same lookup for H[Ac4c]HGTFTSDLSKYLESRRAQDFVQWLLK([Gly-Ser-Glu-Gly-Ser-γGlu-γGlu-C18 diacid])T-NH2 , please.
RESULT: 8.59
